Listed next: entries and their corresponding MIC.
- Test system: Streptococcus pneumoniae
- testDetails: Antibacterial activity against methicillin-resistant Streptococcus pneumoniae ATCC 700677 after 20 hrs by broth microdilution assay
- Type: functional
- testSettings: ATCC 700677, 20 h

Consider the reported MIC for these compounds:
CCCCCCCCOc1ccc(-c2nc(C)c(-c3ccnc(NC(=N)N4CCN(C)CC4)n3)s2)cc1; 16 µg/mL
CCCCCCCOc1ccc(-c2nc(C)c(-c3ccnc(NC(=N)N4CCN(C)CC4)n3)s2)cc1; 16 µg/mL
CCCCCCCOc1ccc(-c2nc(C)c(-c3ccnc(NC(=N)N(C)C)n3)s2)cc1; 4 µg/mL
CCCCCCCOc1ccc(-c2nc(C)c(-c3ccnc(NN)n3)s2)cc1; > 64 µg/mL

The record that follows has no MIC shown yet.
// returns reported MIC for input `CN[C@H](CC(C)C)C(=O)N[C@H]1C(=O)N[C@@H](CC(N)=O)C(=O)N[C@H]2C(=O)N[C@H]3C(=O)N[C@H](C(=O)N[C@H](C(=O)O)c4cc(O)cc(O)c4-c4cc3ccc4O)[C@H](O)c3ccc(c(Cl)c3)Oc3cc2cc(c3O[C@@H]2O[C@H](CO)[C@@H](O)[C@H](O)[C@H]2O[C@H]2C[C@](C)(N)[C@H](O)[C@H](C)O2)Oc2ccc(cc2Cl)[C@H]1O`
2 µg/mL
